Kindly supply the reported shrunken log2 fold change values for the records listed here.
# Tested on: Escherichia coli TOP10
# assay_overview: shrunken log2 fold change of peptide-encoding DNA abundance (4.5 h post-induction vs induction); higher = less antimicrobial activity (less host growth inhibition)
# test_settings: time post-induction: 4.5 h; library: site-saturation at positions 5, 18, 19, 20
Give bare numbers.

>  <seq_string>
RRIRFRPPRLPRPRPRPKHQPRP

>  <observed_value>
-0.131

$$$$

Please state, for each entry, its recorded shrunken log2 fold change.
1. RRIRQRPPRLPRPRPRPGHYPRP
2. RRIRSRPPRLPRPRPRPDHEPRP

A)
1: -0.00181; 2: -0.0462

Please state, for each entry, its recorded shrunken log2 fold change.
1. RRIRNRPPRLPRPRPRPCEMPRP
2. RRIRCRPPRLPRPRPRPHYPPRP

A)
0.019
-0.902

Please state, for each entry, its recorded shrunken log2 fold change.
1. RRIRKRPPRLPRPRPRPWVKPRP
2. RRIRGRPPRLPRPRPRPDCGPRP

A)
-0.148
0.879

Please state, for each entry, its recorded shrunken log2 fold change.
1. RRIRVRPPRLPRPRPRPNYLPRP
2. RRIRSRPPRLPRPRPRPVTPPRP
3. RRIRPRPPRLPRPRPRPFLMPRP
4. RRIRSRPPRLPRPRPRPAFYPRP
5. RRIRRRPPRLPRPRPRPNLDPRP
6. RRIRDRPPRLPRPRPRPDPPPRP
7. RRIRSRPPRLPRPRPRPDYMPRP
8. RRIRTRPPRLPRPRPRPMFFPRP

A)
1. -0.102
2. 0.0877
3. -0.349
4. -0.166
5. -0.152
6. 0.627
7. -0.355
8. -0.204

Please state, for each entry, its recorded shrunken log2 fold change.
1. RRIRRRPPRLPRPRPRPCKIPRP
2. RRIRFRPPRLPRPRPRPCRAPRP
3. RRIRDRPPRLPRPRPRPCCTPRP
4. RRIRNRPPRLPRPRPRPTLQPRP

A)
0.0604
0.0454
0.149
0.0909

Please state, for each entry, its recorded shrunken log2 fold change.
1. RRIRQRPPRLPRPRPRPMKVPRP
2. RRIRDRPPRLPRPRPRPIYHPRP
3. RRIRQRPPRLPRPRPRPCGAPRP
4. RRIRHRPPRLPRPRPRPSVSPRP
5. RRIRPRPPRLPRPRPRPMQSPRP
6. RRIRCRPPRLPRPRPRPGEPPRP
7. RRIRQRPPRLPRPRPRPNEQPRP
8. RRIRPRPPRLPRPRPRPLNWPRP

A)
1: 0.0879; 2: -0.827; 3: 0.133; 4: -0.0167; 5: 0.524; 6: 0.0366; 7: 0.0394; 8: 0.0566

Please state, for each entry, its recorded shrunken log2 fold change.
1. RRIRNRPPRLPRPRPRPLQGPRP
2. RRIRVRPPRLPRPRPRPWARPRP
3. RRIRTRPPRLPRPRPRPINHPRP

A)
1. 0.0149
2. 0.416
3. -0.718

Please state, for each entry, its recorded shrunken log2 fold change.
1. RRIRQRPPRLPRPRPRPVGLPRP
2. RRIRYRPPRLPRPRPRPDVRPRP

A)
1: 0.35; 2: -0.0526

====

# Test system: Escherichia coli TOP10;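 note: peptides expressed intracellularly from a pBAD plasmid library in pooled LB shake-flask culture, induced with 0.3% L-arabinose, DNA abundance read by NGS, three biological replicates, DESeq2 with apeglm shrinkage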
# assay_overview: shrunken log2 fold change of peptide-encoding DNA abundance (4.5 h post-induction vs induction); higher = less antimicrobial activity (less host growth inhibition)
# test_settings: time post-induction: 4.5 h; library: site-saturation at positions 5, 18, 19, 20
Tick y if shrunken log2 fold change is -0.01 or greater. Tick n if shrunken log2 fold change is less than -0.01.

Record excerpt, results attached:
>  <seq_string>
RRIRLRPPRLPRPRPRPFPYPRP

>  <group>
y

$$$$
>  <seq_string>
RRIRNRPPRLPRPRPRPTYSPRP

>  <group>
n

$$$$
>  <seq_string>
RRIRLRPPRLPRPRPRPVSNPRP

>  <group>
n

$$$$

Q) Is it the case that RRIRHRPPRLPRPRPRPIGAPRP has shrunken log2 fold change reaching or exceeding -0.01?
A) y

Q) Is it the case that RRIRARPPRLPRPRPRPGVYPRP has shrunken log2 fold change reaching or exceeding -0.01?
A) y

Q) Is it the case that RRIRERPPRLPRPRPRPSPCPRP has shrunken log2 fold change reaching or exceeding -0.01?
A) n

Q) Is it the case that RRIRPRPPRLPRPRPRPVNCPRP has shrunken log2 fold change reaching or exceeding -0.01?
A) n

Q) Is it the case that RRIRMRPPRLPRPRPRPCGKPRP has shrunken log2 fold change reaching or exceeding -0.01?
A) y

Q) Is it the case that RRIRARPPRLPRPRPRPTMVPRP has shrunken log2 fold change reaching or exceeding -0.01?
A) n

Q) Is it the case that RRIRTRPPRLPRPRPRPNSQPRP has shrunken log2 fold change reaching or exceeding -0.01?
A) y

Q) Is it the case that RRIRGRPPRLPRPRPRPCALPRP has shrunken log2 fold change reaching or exceeding -0.01?
A) y

Just for reference, the supplement of paper PMC9112550 is where these values come from.
